target: PIKfyve (Homo sapiens (Human), UniProt Q9Y2I7); experiment: PIKfyve EEA1 Assay (endosomal vesicle enlargement, high content imaging in U2OS cells); type: cell-based; conditions: 3 hours of treatment, activity relative to maximal APY0201 activity
Sequence (Q9Y2I7 whole entry): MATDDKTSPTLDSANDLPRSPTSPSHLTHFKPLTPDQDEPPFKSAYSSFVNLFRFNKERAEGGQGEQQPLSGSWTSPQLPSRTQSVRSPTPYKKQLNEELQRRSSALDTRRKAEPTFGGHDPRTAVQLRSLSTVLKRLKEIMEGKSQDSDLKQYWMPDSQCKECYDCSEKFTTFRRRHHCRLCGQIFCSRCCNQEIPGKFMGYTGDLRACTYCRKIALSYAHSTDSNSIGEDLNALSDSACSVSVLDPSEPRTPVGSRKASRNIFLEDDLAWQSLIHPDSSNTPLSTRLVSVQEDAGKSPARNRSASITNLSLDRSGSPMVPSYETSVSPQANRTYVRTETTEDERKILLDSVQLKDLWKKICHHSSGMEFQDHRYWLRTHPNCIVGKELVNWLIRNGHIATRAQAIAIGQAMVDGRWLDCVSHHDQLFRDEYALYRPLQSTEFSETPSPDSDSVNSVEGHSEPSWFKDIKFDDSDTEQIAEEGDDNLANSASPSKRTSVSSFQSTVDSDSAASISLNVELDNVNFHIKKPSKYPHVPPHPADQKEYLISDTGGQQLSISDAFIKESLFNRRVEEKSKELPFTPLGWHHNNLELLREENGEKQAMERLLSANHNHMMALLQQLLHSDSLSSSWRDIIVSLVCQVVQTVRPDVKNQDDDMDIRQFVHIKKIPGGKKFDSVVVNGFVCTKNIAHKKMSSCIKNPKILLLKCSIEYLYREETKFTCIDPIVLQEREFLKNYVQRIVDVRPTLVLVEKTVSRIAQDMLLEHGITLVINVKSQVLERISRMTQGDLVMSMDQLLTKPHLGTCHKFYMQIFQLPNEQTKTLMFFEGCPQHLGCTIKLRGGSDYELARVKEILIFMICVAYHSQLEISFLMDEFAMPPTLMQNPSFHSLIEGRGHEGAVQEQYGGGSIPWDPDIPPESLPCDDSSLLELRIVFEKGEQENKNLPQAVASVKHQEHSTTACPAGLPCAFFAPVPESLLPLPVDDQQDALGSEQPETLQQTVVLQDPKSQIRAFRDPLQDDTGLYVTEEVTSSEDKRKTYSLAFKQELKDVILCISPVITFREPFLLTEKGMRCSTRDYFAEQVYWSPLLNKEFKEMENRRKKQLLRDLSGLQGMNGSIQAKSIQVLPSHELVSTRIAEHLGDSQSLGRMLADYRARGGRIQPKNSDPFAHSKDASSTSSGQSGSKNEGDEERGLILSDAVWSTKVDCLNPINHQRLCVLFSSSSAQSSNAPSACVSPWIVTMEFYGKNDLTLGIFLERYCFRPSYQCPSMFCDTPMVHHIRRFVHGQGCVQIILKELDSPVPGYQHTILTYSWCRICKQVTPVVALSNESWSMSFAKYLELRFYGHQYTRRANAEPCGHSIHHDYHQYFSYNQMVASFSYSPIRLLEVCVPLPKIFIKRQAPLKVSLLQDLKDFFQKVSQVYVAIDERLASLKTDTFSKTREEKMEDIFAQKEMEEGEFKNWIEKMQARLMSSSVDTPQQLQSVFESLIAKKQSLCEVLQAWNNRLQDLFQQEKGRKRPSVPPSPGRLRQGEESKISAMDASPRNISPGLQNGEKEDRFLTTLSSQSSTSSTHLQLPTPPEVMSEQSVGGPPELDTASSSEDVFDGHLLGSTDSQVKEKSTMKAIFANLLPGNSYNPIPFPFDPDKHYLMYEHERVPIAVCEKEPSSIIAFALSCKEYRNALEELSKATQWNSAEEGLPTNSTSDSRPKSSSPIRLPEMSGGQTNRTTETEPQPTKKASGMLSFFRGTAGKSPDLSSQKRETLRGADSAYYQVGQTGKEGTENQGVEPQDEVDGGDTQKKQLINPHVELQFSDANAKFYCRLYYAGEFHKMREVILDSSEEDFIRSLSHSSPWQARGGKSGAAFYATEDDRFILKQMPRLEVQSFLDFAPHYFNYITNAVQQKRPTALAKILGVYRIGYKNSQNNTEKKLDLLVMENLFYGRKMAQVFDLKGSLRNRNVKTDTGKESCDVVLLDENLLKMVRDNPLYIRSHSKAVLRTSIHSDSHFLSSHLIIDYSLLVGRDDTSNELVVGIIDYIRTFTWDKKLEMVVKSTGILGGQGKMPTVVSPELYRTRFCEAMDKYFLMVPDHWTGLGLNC
IC50 by entry:

chemical-structure	property-name	result
Cn1ccc(-c2cccc(-c3nc(N4CCOCC4)nc(Nc4cc[n+](C)cc4)c3-c3ncco3)c2)n1	IC50	1 to 10 µM
COc1c(C(=O)NC2CC2)nc(N2CCOCC2)nc1-c1cccc(-c2ccn(C)n2)c1	IC50	1 to 10 µM
Cn1ccc(-c2cnc3c(c2)-c2nc(N4CCOCC4)nc(Nc4ccncc4)c2OC3)n1	IC50	0.01 to 0.1 µM

Read the next record carefully.
Quick note, IC50 for COc1c(Nc2cccnc2)nc(N2CCOCC2)nc1-c1cccc(N2CCOCC2=O)c1 landed at 1 to 10 µM

* * *

target: PIKfyve (Homo sapiens (Human)); test: PIKfyve EEA1 Assay (endosomal vesicle enlargement, high content imaging in U2OS cells); format: cell-based; conditions: 3 hours of treatment, activity relative to maximal APY0201 activity
property-name: IC50

Field: example entries. Status: answers known.
compound	measurement-target	property-name	result
COc1c(Nc2ccncc2)nc(N2CCOC[C@H]2CO)nc1-c1cccc(-c2ccn(C)n2)c1 [Compound 43]	PIKfyve (Homo sapiens (Human))	IC50	1 to 10 µM
CN(C)C(=O)c1c(Nc2cccnc2)nc(N2CCOCC2)nc1-c1cccc(-n2cccn2)c1 [Compound 69]	PIKfyve (Homo sapiens (Human))	IC50	1 to 10 µM
COc1cn(C)nc1-c1cccc(-c2nc(N3CCOCC3)nc(Nc3ccncc3)c2OC)c1 [Compound 47]	PIKfyve (Homo sapiens (Human))	IC50	0.1 to 1 µM

Read the next record carefully.
Quick note, IC50 for COc1c(Nc2ccncc2)nc(N2CCOCC2)nc1-c1cccc(-c2ncco2)c1 [Compound 54] landed at 0.01 to 0.1 µM

* * *

target: PIKfyve (Homo sapiens (Human)); assay: PIKfyve EEA1 Assay (endosomal vesicle enlargement, high content imaging in U2OS cells); assay type: cell-based; conditions: 3 hours of treatment, activity relative to maximal APY0201 activity
property-name: IC50

Field: example entries. Status: answers known.
compound	measurement-target	result
COc1c(Oc2cccnc2)nc(N2CCOCC2)nc1-n1cc(-c2ccccc2)cn1 [Compound 2]	PIKfyve (Homo sapiens (Human))	1 to 10 µM
COc1c(Nc2cccnc2)nc(N2CCOCC2)nc1-c1cccc(N2CCCC2=O)c1 [Compound 29]	PIKfyve (Homo sapiens (Human))	1 to 10 µM
Cn1ccc(-c2ccc3c(c2)-c2nc(N4CCOCC4)nc(Nc4ccncc4)c2OC3)n1 [Compound 49]	PIKfyve (Homo sapiens (Human))	0.1 to 1 µM

Quick note, IC50 for CN1CCCC(Oc2nc(N3CCOCC3)nc3c2OCc2cc(-c4ccccc4)nn2-3)C1 (centres unmarked) [Compound 35] landed at 1 to 10 µM

Quick note, IC50 for COc1c(Nc2ccncc2)nc(N2CCC(O)CC2)nc1-c1cccc(-c2ccn(C)n2)c1 [Compound 46] landed at > 10 µM

Quick note, IC50 for COc1c(Nc2ccncc2)nc(N2CCOCC2)nc1-c1ccnc(-c2ccn(C)n2)c1 [Compound 14] landed at 0.01 to 0.1 µM

Quick note, IC50 for COc1c(-c2cccc(-c3ccn(C)n3)c2)nc(OCCc2ccccn2)nc1N1CCOCC1 [Compound 5] landed at 1 to 10 µM

Quick note, IC50 for COc1c(-c2cccc(-c3ccn(C)n3)c2)nc(N2CCOCC2)nc1N1CCN(C)C(=O)C1 [Compound 60] landed at 1 to 10 µM
